- Tested on: COLO 205 colon
- EXPERIMENTAL_DETAILS: NCI tumour cell line growth inhibition, 48 h
Catalogue of TGI values

The examples below pair each entry with its known result.
[[record]]
molecule = "O=C([O-])c1ccccc1Nc1ccccc1[O-].[Ni+3].[OH3+].[OH3+].[OH3+]"
result = "> 100 µM"

[[record]]
molecule = "c1ccc(C2N3CCCCC3[C@@H]3c4[nH]c5ccccc5c4CCN23)cc1 (some centres undefined)"
result = "48.2 µM"

[[record]]
molecule = "Cc1cc(N=Nc2ccc(N=Nc3c(O)c(S(=O)(=O)O)cc4cc(S(=O)(=O)O)ccc34)cc2C)ccc1N=Nc1ccc2cc(S(=O)(=O)O)cc(S(=O)(=O)O)c2c1"
result = "> 100 µM"

[[record]]
molecule = "COc1ccc(-c2coc3cc(OC)cc(O)c3c2=O)cc1"
result = "> 100 µM"

[[record]]
molecule = "CN1CCCCC1CCN1c2ccccc2Sc2ccc(S(C)=O)cc21 (centres undefined)"
result = "> 100 µM"

[[record]]
molecule = "CCN(CC(COc1ccc2c(c1)[n+]([O-])nc(N)[n+]2[O-])OC(C)=O)C(C)=O (centres undefined)"
result = "> 100 µM"


[in] Any idea what its TGI is? The molecule is Cc1nc2c(ncn2CCO)c(=O)[nH]1
[out] > 100 µM

[in] Any idea what its TGI is? The molecule is O=C1c2cccnc2C(=O)c2c1c(C(=O)OCCN1CCOCC1)c1ccccn21
[out] 0.69 µM

[in] Any idea what its TGI is? The molecule is C[n+]1ccc(-c2c3nc(c(-c4ccc5c(ccc[n+]5C)c4)c4ccc([nH]4)c(-c4cc[n+](C)cc4)c4nc(c(-c5ccc6c(ccc[n+]6C)c5)c5ccc2[nH]5)C=C4)C=C3)cc1
[out] > 50 µM
